Provide the reported growth of each item.
# System: SF-295 CNS
# assay-summary: NCI-60 one-dose screen, 48 h (100 = growth as untreated, 0 = no growth, -100 = all killed)
# experimental-conditions: 10 µM unless noted
This is part of a sample that, as a whole, favours compounds with a hit. Of some 83,000 tested, about 20% had one in any assay.
Hi! Could you send only the number? It should be in %, unit omitted.

Reported SF-295 CNS growth for item CCOC(=O)C1=C(C)NC(=O)NC1c1cc(=O)oc2ccc(C)cc12 (centres undefined) was 96.9

Reported SF-295 CNS growth for item O=C(NCCO)Nc1ccc(-c2nc(N3CCOCC3)c3cccn3n2)cc1 was -23.3

Reported SF-295 CNS growth for item CCN1CCN(c2nc(C)cc(N(CCCNc3ccnc4cc(Cl)ccc34)Cc3ccc4c(c3)OCO4)n2)CC1 was -76.1

Reported SF-295 CNS growth for item CCN(CC)CCNc1ccc(N=Nc2cnc3ccccc3c2)c2ccccc12 was -53.9

Reported SF-295 CNS growth for item N#Cc1c(-c2ccc(Cl)cc2)csc1NC(=O)Nc1cccc(C(F)(F)F)c1 was 3.47

Reported SF-295 CNS growth for item COc1cc(CCc2cc(NC(=O)c3ccc(N4C[C@@H](C)N[C@@H](C)C4)cc3)n[nH]2)cc(OC)c1 was 62.4

Reported SF-295 CNS growth for item CCN1CCN(Cc2ccc(-c3cc4c(N[C@H](C)c5ccccc5)ncnc4[nH]3)cc2)CC1 was 68.8

Reported SF-295 CNS growth for item O=C(c1ccccc1)C(c1ccccc1)N1CCOCC1 (centres undefined) was 94.9

Reported SF-295 CNS growth for item C[C@@H]1COCCN1c1cc(C2([S@](C)(=N)=O)CC2)nc(-c2ccnc3[nH]ccc23)n1 was 19

Reported SF-295 CNS growth for item COC(=O)[C@]12CC[C@@H](C)[C@H](C)[C@@H]1C1=CC[C@@H]3[C@@]4(C)C(C#N)=CC(C)=C4CC[C@@]3(C)[C@]1(C)CC2 was 85.4

Reported SF-295 CNS growth for item CC(C)n1c(NCCc2ccc(O)c(O)c2)nc2c1c(=O)n(C)c(=O)n2C was 106

Reported SF-295 CNS growth for item COc1ccc2nc3cc(Cl)ccc3c(Nc3ccc(N(C)C)cc3)c2c1 was 86.8

Reported SF-295 CNS growth for item Cc1nn(-c2ccccc2)c2c1N=c1s/c(=C\c3cn(-c4ccccc4)nc3-c3ccc(Cl)cc3)c(=O)n1C(C)N2 (centres undefined) was 116

Reported SF-295 CNS growth for item C#Cc1cccc(Nc2ncnc3cc(OCCOC)c(OCCOC)cc23)c1 was 84.9

Reported SF-295 CNS growth for item O=C1CCC(=O)CC1 was 101

Reported SF-295 CNS growth for item COc1ccc(Br)cc1NC(=O)Nc1cccc2c1ccn2Cc1ccnc(N)c1 was -6.47

Reported SF-295 CNS growth for item COC(=O)[C@]12CC[C@@H](C)[C@H](C)[C@@H]1C1=CC[C@@H]3[C@@]4(C)C(C=O)=C[C@@](C)(COS(C)(=O)=O)C4=CC[C@@]3(C)[C@]1(C)CC2 was -60.2

Reported SF-295 CNS growth for item Cc1cc(Nc2cc(N3CCN(C)CC3)nc(/C=C/c3ccccc3)n2)n[nH]1 was -17

Reported SF-295 CNS growth for item CCc1ccc(C2=C(O)C(=O)C(c3ccc(CC)cc3)=C(O)C2=O)cc1 was -27.2
